Literature compilation of pIC50 measurements on ADAMTS4 (Homo sapiens, UniProt O75173).
pIC50: −log10 of the molar value.
outcomeMeasure: pIC50

compound | pIC50
CC(C)C1(CNC(=O)c2cnn(-c3cc(F)c(F)c(F)c3)n2)NC(=O)NC1=O (racemic) | 5.22
O=C1NC(=O)C(CNC(=O)c2nc(-c3ccccc3)no2)(CC2CC2)N1 (centres unmarked) | 5.54
CC(C)[C@@H](NS(=O)(=O)c1ccc(-c2ccc(COc3ccc(C(=O)C4CCCCC4)cc3)cc2)cc1)C(=O)O | 7.00
O=C1NC(=O)C(CNC(=O)c2cnn(-c3ccc(F)cc3)n2)(C2CCOCC2)N1 (racemic) | 5.03
O=C1NC(=O)[C@](CNC(=O)c2cnn(-c3ccc(Cl)c(F)c3)n2)(C2CC2)N1 | 6.30
O=C1NC(=O)C(CNC(=O)c2cnn(-c3ccc(F)cc3)n2)(CC2CC2)N1 (centres unmarked) | 5.21
O=C1NC(=O)[C@](CNC(=O)c2cnn(-c3ncc(F)cc3F)n2)(C2CC2)N1 | 5.21
O=C1NC(=O)C(CNC(=O)c2cnn(-c3ccc(F)cc3)n2)(c2cccnc2)N1 (racemic) | 5.35
Cc1cc(-c2ccc(S(=O)(=O)N[C@@H](C(=O)O)C(C)C)cc2)cc(C)c1OC(=O)c1cc2ccccc2o1 | 6.10
CC(C)C1(CNC(=O)c2cnn(-c3ccc(F)cc3F)n2)NC(=O)NC1=O (single isomer, unassigned; ent-2) | 4.89

[I] O=C1NC(=O)C(CNC(=O)c2cnn(-c3ccc(F)c(Cl)c3)n2)(C2CCC2)N1 (single isomer, unassigned; ent-2)
[II] N#Cc1cccc(-n2ncc(C(=O)NCC3(C4CCC4)NC(=O)NC3=O)n2)c1 (single isomer, unassigned; ent-2)
[III] O=C1NC(=O)[C@](CNC(=O)c2cnn(-c3ccc(F)cc3Cl)n2)(C2CC2)N1
[IV] O=C1NC(=O)C(CNC(=O)c2cnn(-c3ccc(Cl)c(F)c3)n2)(c2nccs2)N1 (single isomer, unassigned; ent-2)
INPUT: // ranking: key=pIC50, reverse=True Reply: labels, ordered per the request.
OUTPUT: IV, I, II, III
(IV: 6.40, I: 5.74, II: 5.40, III: 4.77)
